- targetSystem: NXF3; note: reference of the scale not given here
- procedureText: pooled miR-30 sensor sort-seq; sequence = guide strand
- conditionLabel: shRNA
Response key: TRUE means sensor-assay potency score (higher = more potent) >= -0.8; FALSE means sensor-assay potency score (higher = more potent) < -0.8.

Illustrative cases are given below, each with its answer.
sequenceString | groupLabel
TAATTTGGGGAACAATTCCAGG | FALSE
TTCTTCAACATCTCAGATCCAA | TRUE
AATCTTGCCACTGACATTCTTC | TRUE
TTGACAAAGATTGATATCTTTT | FALSE
TTGAACAACTTGATCAGTGTGA | TRUE

Would you say TGCATCTCCATCTTGCTGCTGA shows sensor-assay potency score (higher = more potent) at minimum -0.8?
TRUE
